Here the recorded log10 of MIC is given for each entry.
Test system: Bacillus subtilis
Assay: Antibacterial activity against Bacillus subtilis ATCC 14289
Format: functional
Log scale reminder: MIC in µM, then log10 taken.

Consider the following illustrative entries.
CO[C@H]1/C=C/O[C@@]2(C)Oc3c(C)c(O)c4c(O)c(c(/C=N/N5CCN(C)CC5)c(O)c4c3C2=O)NC(=O)/C(C)=C\C=C\[C@H](C)[C@H](O)[C@@H](C)[C@@H](O)[C@@H](C)[C@H](OC(C)=O)[C@@H]1C [RIFAMPIN] ... 0.18
N=C(N)N[C@@H](Cc1ccccc1)C(=O)NCCCCCCCCOc1ccc(OCc2ccccc2)cc1 ... 0.50
CC1(C)S[C@@H]2[C@H](NC(=O)[C@H](N)c3ccccc3)C(=O)N2[C@H]1C(=O)O [AMPICILLIN] ... -0.70
C[N+](C)(C)[C@H](COCCCCCCCCOc1ccc(OCc2ccccc2)cc1)c1ccccc1 ... -0.11
C[N+](C)(C)[C@@H](Cc1ccccc1)C(=O)NCCCCCCCCOc1ccc(OCc2ccccc2)cc1 ... -0.41
C[C@H]1c2cccc(O)c2C(=O)C2=C(O)[C@]3(O)C(=O)C(C(N)=O)=C(O)[C@@H](N(C)C)[C@@H]3[C@@H](O)[C@@H]21 [DOXYCYCLINE] ... 0.19

Shift focus to the following entry.
Q: Enter reported log10 of MIC observed with Bacillus subtilis for C[N+](C)(C)c1ccc(CC(=O)OCCCCCCCCOc2ccc(OCc3ccccc3)cc2)cc1
Ans: 0.30

* * *

Assay: Inhibition of yeast alcohol dehydrogenase in presence of 0.01% Triton X-100 by fluorescence based assay
Design: species or system Saccharomyces cerevisiae
Reported property: IC50 (µM)
Numeric only. Scale: µM

Q: Fill blank: measured IC50 of the compound C[N+](C)(C)[C@@H](Cc1ccccc1)C(=O)OCCCCCCCCOc1ccc(OCc2ccccc2)cc1 is ____.
Ans: 266

* * *

System: Bacillus subtilis
Assay: Antibacterial activity against Bacillus subtilis ATCC 14289
Format: functional
Reported property: MIC (µM)
Dear colleague, please return just the value in µM, with no unit written.

Consider the worked cases shown below.
C[N+](C)(C)[C@H](C(=O)NCCCCCCCCOc1ccc(OCc2ccccc2)cc1)c1ccccc1 ... 1.56
C[N+](C)(C)[C@H](COCCCCCCCCOc1ccc(OCc2ccccc2)cc1)Cc1ccccc1 ... 0.39
N=C(N)N[C@H](COCCCCCCCCOc1ccc(OCc2ccccc2)cc1)c1ccccc1 ... 3.13
O=C(O)c1cn(C2CC2)c2cc(N3CCNCC3)c(F)cc2c1=O ... 0.5
N=C(N)N[C@H](COCCCCCCCCOc1ccc(OCc2ccccc2)cc1)Cc1ccccc1 ... 3.13
C[N+](C)(C)[C@@H](Cc1ccc(O)cc1)C(=O)OCCCCCCCCOc1ccc(OCc2ccccc2)cc1 ... 1.56
C[N+](C)(C)[C@@H](Cc1ccccc1)C(=O)OCCCCCCCCOc1ccc(OCc2ccccc2)cc1 ... 0.78

Next molecule, MIC to be filled in.
Q: Record request: MIC value, item N=C(N)N[C@H](C(=O)NCCCCCCCCOc1ccc(OCc2ccccc2)cc1)c1ccccc1
Ans: 1.56

* * *

Experiment: Inhibition of yeast alcohol dehydrogenase by fluorescence based assay
Parameters: species or system Saccharomyces cerevisiae
Catalogue of pIC50 readings, one per entry.
Scale: pIC50 equals -log10([C]), with [C] in mol/L.

Clc1ccccc1C(c1ccccc1)(c1ccccc1)n1ccnc1 ... 4.02

Would you kindly look at the next entry?
Q: # get_value(readout='pIC50', item= C[N+](C)(C)[C@@H](Cc1ccccc1)C(=O)OCCCCCCCCOc1ccc(OCc2ccccc2)cc1 )
Ans: 4.57
